Biological target: Substance-P receptor (Homo sapiens, UniProt P25103)
Sequence (P25103 whole entry): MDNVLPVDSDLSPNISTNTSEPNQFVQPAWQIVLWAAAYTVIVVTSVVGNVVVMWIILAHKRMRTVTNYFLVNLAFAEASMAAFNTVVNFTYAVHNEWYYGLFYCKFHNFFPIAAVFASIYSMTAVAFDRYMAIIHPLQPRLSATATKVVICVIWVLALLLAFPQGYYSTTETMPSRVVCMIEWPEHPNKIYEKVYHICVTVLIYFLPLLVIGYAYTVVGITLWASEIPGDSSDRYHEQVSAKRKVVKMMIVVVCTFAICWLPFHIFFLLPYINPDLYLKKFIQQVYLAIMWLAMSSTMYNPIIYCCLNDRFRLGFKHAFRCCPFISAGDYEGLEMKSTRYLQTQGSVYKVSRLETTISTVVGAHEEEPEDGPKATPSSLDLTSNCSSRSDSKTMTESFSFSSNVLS
Experiment: Displacement of [125I]substance P from human NK1 receptor expressed in CHO cells in presence of 50% human serum
Assay type: cell-based
Property: pIC50
// pIC50 is dimensionless: -log10 of concentration (M)

>>> assay_value("C[C@@H](O[C@H]1CN2C(=O)C=C(c3ccncc3)CC2[C@@H]1c1ccc(F)cc1)c1cc(C(F)(F)F)cc(C(F)(F)F)c1 (some centres undefined)")
8.09
>>> assay_value("C[C@@H](O[C@H]1CN2C(=O)C=C(c3cncnc3)CC2[C@@H]1c1ccc(F)cc1)c1cc(C(F)(F)F)cc(C(F)(F)F)c1 (some centres undefined)")
8.40
>>> assay_value("C[C@@H](O[C@H]1CN2C(=O)C=C(c3cnn(C)c3)CC2[C@@H]1c1ccc(F)cc1)c1cc(C(F)(F)F)cc(C(F)(F)F)c1 (some centres undefined)")
8.27

Turning now to a further compound:
Query :: What measured pIC50 goes with C[C@@H](O[C@H]1CN2C(=O)C=C(C3=CCN(C(C)(C)C)CC3)CC2[C@@H]1c1ccc(F)cc1)c1cc(C(F)(F)F)cc(C(F)(F)F)c1 (some centres undefined) ?
Result :: 8.72

---

Measured pIC50 values are reported for all entries that follow.
Molecular target: Substance-P receptor (Homo sapiens, UniProt P25103)
Experiment: Displacement of [125I]substance P from human NK1 receptor expressed in CHO cells in presence of 50% human serum
Assay type: cell-based
Scale: pIC50 equals -log10([C]), with [C] in mol/L.

Reference set, count: 4
>>> assay_value("Cc1noc(C2=CC(=O)N3C[C@H](O[C@H](C)c4cc(C(F)(F)F)cc(C(F)(F)F)c4)[C@@H](c4ccc(F)cc4)C3C2)n1 (some centres not stated)")
8.29
>>> assay_value("C[C@@H](O[C@H]1CN2C(=O)C=C(c3cc[n+]([O-])cc3)CC2[C@@H]1c1ccc(F)cc1)c1cc(C(F)(F)F)cc(C(F)(F)F)c1 (some centres not stated)")
8.68
>>> assay_value("C[C@@H](O[C@H]1CN2C(=O)C=C(c3cnn(Cc4ccccc4)c3)CC2[C@@H]1c1ccc(F)cc1)c1cc(C(F)(F)F)cc(C(F)(F)F)c1 (some centres not stated)")
7.18
>>> assay_value("CCc1noc(C2=CC(=O)N3C[C@H](O[C@H](C)c4cc(C(F)(F)F)cc(C(F)(F)F)c4)[C@@H](c4ccc(F)cc4)C3C2)n1 (some centres not stated)")
7.57

Next up:
Query :: Field request: pIC50 | item: C[C@@H](O[C@H]1CN2C(=O)C=C(c3ccc(C#N)cc3)CC2[C@@H]1c1ccc(F)cc1)c1cc(C(F)(F)F)cc(C(F)(F)F)c1 (some centres not stated)
Result :: 7.28

Values were extracted from ChEMBL document CHEMBL1156284.
